Molecular target: dopamine D4 receptor (Homo sapiens)
Construct: expressed in transfected cells; host or cells: CHO (Chinese Hamster Ovary) cells, D4-CHO, crude membranes
Sequence (P21917 1-419): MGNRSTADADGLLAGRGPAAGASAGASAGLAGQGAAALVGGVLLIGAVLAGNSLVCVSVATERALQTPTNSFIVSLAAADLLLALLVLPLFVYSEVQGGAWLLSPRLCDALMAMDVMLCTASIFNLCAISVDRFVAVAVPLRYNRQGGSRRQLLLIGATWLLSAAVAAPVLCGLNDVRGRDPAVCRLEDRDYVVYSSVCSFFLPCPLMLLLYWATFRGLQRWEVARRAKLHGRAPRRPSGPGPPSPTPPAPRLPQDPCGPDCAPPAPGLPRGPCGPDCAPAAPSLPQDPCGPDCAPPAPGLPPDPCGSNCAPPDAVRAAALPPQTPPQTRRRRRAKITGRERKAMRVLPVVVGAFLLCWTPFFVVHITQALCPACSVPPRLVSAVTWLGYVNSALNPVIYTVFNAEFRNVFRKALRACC
Test: Binding to the D4 receptor, [3H]-spiperone displacement, D4-CHO membranes
readout: pKi
One number for each entry, as −log10 of the molar value.

In one line, give reported pKi of the entry Nc1ccccc1C(=O)OC1CCN(Cc2ccccc2)CC1 [A/5a, 1-Benzyl-piperidin-4-yl 2-amino-benzoate] .
8.40
